test-target: HCV NS3/4A PR (S139A) (Hepatitis C virus subtype 1a, UniProt A8DG50, A1066T/I1043Q/I1044E/L1039E/L1040E/L1047Q/S1165A, form not given)
test: Biacore 8K binding kinetics of PRSIM binding molecules
condition-context: 10 nM simeprevir present
Below is a list of entries, each paired with its recorded Kd value.
Could you give me the number in nM? Just the number is fine.

Use the examples below as a reference point.
- molecule: "PRSIM_04: scFv PRSIM binding molecule, SEQ ID NO: 11 (protein, PRSIM_04) scFv: QVQLVQSGAEVKKPGSSVKVSCKASGGTFSSYAISWVRQAPGQGLEWMGGIIPIFGTANYAQKFQGRVTITADESTSTAYMELSSLRSEDTAVYYCARGMAHFYQFDLWGQGTLVTVSSGGGGSGGGGSGGGGSAQSVLTQPPSASGTPGQRVTISCSGSSSNIGSNTVNWYQQLPGTAPKLLIYSNNQRPSGVPDRFSGSKSGTSASLAISGLQSEDEADYYCAAGDHDHEHVVFGGGTKLTVL"
  value-units: "nM"
  numeric-readout: 11.2
- molecule: "PRSIM_67: scFv PRSIM binding molecule, SEQ ID NO: 13 (protein, PRSIM_67) scFv: EVQLVQSGAEVKKPGAAVRISCKTSGYVFTSYYVHWVRQAPGQGLEWMGVINPSGGNTNYAQKFQDRVTMTRDTSTTTVYMELSSLMFDDTAVYYCAKRDYGGPLANWGRGTLVTVSSGGGGSGGGGSGGGGSALSYELTQPPSVSEAPRQRVTISCSGSSSNIGNNAVNWYQQLPGKAPKLLIFYDDLLPSGVSDRFSGSKSGTSASLAISGLQSEDEADYYCAAWDDSLNGLVFGTGTKLTVL"
  value-units: "nM"
  numeric-readout: 11.5
- molecule: "PRSIM_23: Tn3 protein specific for HCV NS3/4A PR (S139A):simeprevir complex, SEQ ID NO: 5 (protein, PRSIM_23) RLDAPSQIEVKDVTDTTALITWVDPRYDDIWWFELTYGIKDVPGDRTTIKLYLNDPYYSIGNLKPDTEYEVSLISYTGDSYSRSGSNPAKITFKTGL"
  value-units: "nM"
  numeric-readout: 6.3
- molecule: "PRSIM_72: scFv PRSIM binding molecule, SEQ ID NO: 14 (protein, PRSIM_72) scFv: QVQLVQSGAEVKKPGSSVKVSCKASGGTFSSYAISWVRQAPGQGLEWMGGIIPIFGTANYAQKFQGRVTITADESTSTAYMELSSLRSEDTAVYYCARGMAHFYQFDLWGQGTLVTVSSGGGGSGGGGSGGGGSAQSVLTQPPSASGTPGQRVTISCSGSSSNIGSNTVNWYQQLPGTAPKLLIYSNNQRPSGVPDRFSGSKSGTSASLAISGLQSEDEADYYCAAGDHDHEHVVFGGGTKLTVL"
  value-units: "nM"
  numeric-readout: 1
- molecule: "PRSIM_57: scFv specific for HCV NS3/4A PR (S139A):simeprevir complex, SEQ ID NO: 12 (protein, PRSIM_57) scFv: QVQLVQSGAEVKKPGSSVKVSCKASGGTFSSYAISWVRQAPGQGLEWMGGIIPIFGTANYAQKFQGRVTITADESTSTAYMELSSLRSEDTAVYYCARHTNYITVFDYWGQGTLVTVSSGGGGSGGGGSGGGGSAQSVLTQPPSASGTPGQRVTISCSGSSSNIGSNTVNWYQQLPGTAPKLLIYSNNQRPSGVPDRFSGSKSGTSASLAISGLQSEDEADYYCAAWDHHWEQVVFGGGTKLTVL"
  value-units: "nM"
  numeric-readout: 15

Please find the next molecule below.
# input Provide only the value of recorded Kd for PRSIM_75: scFv PRSIM binding molecule, SEQ ID NO: 15 (protein, PRSIM_75) scFv: EVQLVQSGAEVKKPGSSVKVSCKASGGSFNSYTLDWVRQAPGQGLEWMGGIIPVFGSPNYGQKFQGRVTITADESTSTAYMELSSLKSDDTAVYYCARGLVYQPLDSWGRGTLVTVSSGGGGSGGGGSGGGGSAQAVLTQPSSASGTPGQRVTISCSGSSSNIGSYTVNWYQQFPGTAPKLLIYSNTQRPSGVPDRFSGSKSGTSASLAISGLQSEDEADYYCAAWDDSLNGWVFGGGTKVTVL
# output 0.3
